STUDY_SYSTEM: Glutamate receptor ionotropic, NMDA 1 (Rattus norvegicus)
ASSAY_INFO: Inhibition of binding affinity of [3H]L-689,560 to the strychnine insensitive glycine site on rat brain membranes
OUTCOME_MEASURE: log10 IC50 (log10 of the value in µM)

1) CCC/C=C1\NC(=O)C(c2ccccc2)=C1O    1.20
2) C=C(C)COc1cccc(C2=C(O)/C(=C\CC)NC2=O)c1    0.48
3) O=C1N/C(=C\c2ccccc2)C(O)=C1c1ccccc1    1.38
4) CC/C=C1/NC(=O)C(c2ccccc2)=C1O    1.66
5) CC/C=C1/NC(=O)C(c2cccc(Oc3ccccc3)c2)=C1O    -0.15
6) O=C1N/C(=C\C2CC2)C(O)=C1c1ccccc1    0.98
